Test system: human HDAC6 (Homo sapiens, UniProt Q9UBN7)
Construct: purchased SignalChem Pharmaceutical Inc
Sequence (Q9UBN7 whole entry): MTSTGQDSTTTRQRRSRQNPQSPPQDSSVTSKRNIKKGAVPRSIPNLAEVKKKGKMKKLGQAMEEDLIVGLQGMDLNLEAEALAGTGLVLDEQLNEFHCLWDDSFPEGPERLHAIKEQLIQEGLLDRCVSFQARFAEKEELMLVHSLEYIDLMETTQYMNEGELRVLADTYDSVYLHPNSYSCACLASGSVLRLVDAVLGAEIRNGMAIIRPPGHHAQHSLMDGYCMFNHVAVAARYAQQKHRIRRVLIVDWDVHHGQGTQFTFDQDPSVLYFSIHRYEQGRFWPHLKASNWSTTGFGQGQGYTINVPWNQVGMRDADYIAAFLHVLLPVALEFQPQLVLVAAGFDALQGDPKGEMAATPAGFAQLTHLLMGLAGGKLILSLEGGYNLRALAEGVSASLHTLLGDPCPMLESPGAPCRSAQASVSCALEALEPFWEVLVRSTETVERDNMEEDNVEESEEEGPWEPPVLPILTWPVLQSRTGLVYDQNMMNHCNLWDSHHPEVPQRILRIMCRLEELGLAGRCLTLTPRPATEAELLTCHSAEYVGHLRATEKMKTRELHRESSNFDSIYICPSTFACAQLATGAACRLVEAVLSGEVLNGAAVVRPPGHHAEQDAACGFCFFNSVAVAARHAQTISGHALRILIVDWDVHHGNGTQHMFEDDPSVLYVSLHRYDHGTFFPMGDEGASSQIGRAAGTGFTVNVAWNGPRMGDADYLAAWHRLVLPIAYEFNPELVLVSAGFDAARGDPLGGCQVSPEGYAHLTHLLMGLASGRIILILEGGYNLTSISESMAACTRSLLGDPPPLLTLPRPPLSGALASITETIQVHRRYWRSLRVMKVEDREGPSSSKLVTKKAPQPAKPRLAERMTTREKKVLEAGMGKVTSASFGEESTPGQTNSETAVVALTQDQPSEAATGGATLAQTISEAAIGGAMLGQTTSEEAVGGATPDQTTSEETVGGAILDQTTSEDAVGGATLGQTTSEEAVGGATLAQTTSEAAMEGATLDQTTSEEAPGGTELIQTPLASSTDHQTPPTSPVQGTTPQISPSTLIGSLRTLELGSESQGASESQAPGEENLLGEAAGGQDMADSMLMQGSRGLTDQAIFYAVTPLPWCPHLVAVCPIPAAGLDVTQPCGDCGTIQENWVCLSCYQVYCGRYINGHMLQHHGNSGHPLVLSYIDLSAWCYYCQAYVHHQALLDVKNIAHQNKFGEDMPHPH
Assay notes: HDAC enzyme assay (HDAC-Glo I/II), HDAC6
Type: biochemical
Details: without pre-incubation
Measurement name: IC50 (nM)

- Compound: "O=C1c2cc(-c3nnc(C(F)F)o3)cnc2CN1[C@@H]1CCCC[C@H]1NC(=O)C(F)(F)C(F)(F)F [T-518]"
  Unit label: "nM"
  Measured result: 36

* * *

Assay notes: Free fraction in a brain (Fu,b)
Type: in vitro ADME
Details: data not shown

- Compound: "O=C1c2cc(-c3nnc(C(F)F)o3)cnc2CN1[C@@H]1CCCC[C@H]1NC(=O)C(F)(F)C(F)(F)F [T-518]"
  fraction unbound: 0.4
